ASSAY_SYSTEM: B-cell lymphoma 6 protein (Homo sapiens, UniProt P41182, C67R/C84N/C8Q)
ASSAY_PROTOCOL: Binding affinity to human biotinylated Avi-tagged BCL6 BTB domain C8Q/C67R/C84N triple mutant expressed in Escherichia coli BL21 (DE3) using 5 % DMSO by SPR analysis
MEASURE_NAME: Kd
Quote the value and follow it with the unit of measurement.

Item Ac-RSEIISTAPSSWVVPPK-OH with B-cell lymphoma 6 protein (Homo sapiens, UniProt P41182, C67R/C84N/C8Q) - Kd?
25 µM

###

ASSAY_SYSTEM: B-cell lymphoma 6 protein (Homo sapiens, UniProt P41182)
ASSAY_PROTOCOL: Binding affinity to captured wild-type human biotinylated Avi-tagged BCL6 BTB domain (5 to 129 amino acid residues) expressed in Escherichia coli BL21 (DE3) by SPR analysis
Recorded pKd, one value per entry.
When answering, recall that pKd equals minus log10 of the concentration in mol/L, and write that number alone.

Use the examples below as a reference point.
smiles_str=O=C1Cc2cc(Nc3ncncc3Cl)ccc2N1 assay_system="B-cell lymphoma 6 protein (Homo sapiens, UniProt P41182)" measure_name=pKd result_number=5.03
smiles_str=Nc1nccc(Nc2ccccc2)n1 assay_system="B-cell lymphoma 6 protein (Homo sapiens, UniProt P41182)" measure_name=pKd result_number=2.52

Item Nc1ncc(F)c(Nc2ccccc2)n1 with B-cell lymphoma 6 protein (Homo sapiens, UniProt P41182) - pKd?
3.74
